- target or system: hGLP-1R (Homo sapiens, UniProt P43220)
- Sequence (P43220 24-463): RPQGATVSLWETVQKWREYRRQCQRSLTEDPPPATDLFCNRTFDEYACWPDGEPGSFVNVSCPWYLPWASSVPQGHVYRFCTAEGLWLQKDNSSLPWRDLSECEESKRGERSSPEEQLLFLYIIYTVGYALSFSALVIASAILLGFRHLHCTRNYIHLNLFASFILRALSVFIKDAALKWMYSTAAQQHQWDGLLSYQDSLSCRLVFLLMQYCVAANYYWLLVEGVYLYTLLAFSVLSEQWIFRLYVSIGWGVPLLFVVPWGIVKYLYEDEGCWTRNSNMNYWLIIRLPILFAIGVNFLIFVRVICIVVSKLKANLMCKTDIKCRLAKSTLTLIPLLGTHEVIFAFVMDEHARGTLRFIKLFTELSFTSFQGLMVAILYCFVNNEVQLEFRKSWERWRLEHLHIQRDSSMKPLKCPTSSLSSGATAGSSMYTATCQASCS
- test details: cell-based or functional assay
Documented Relative cAMP EC50 across a set of binders
Give the number; nM is assumed, so skip it.

Example binders with recorded Relative cAMP EC50:
binder | value units | Relative cAMP EC50
YXQGTXTSDXXIXLDXKAQXXFIEXLIEGGPSSGEPPPEGE (synthetic construct; SITE 2: note = 2-Aminoisobutyric Acid; SITE 6: note = alpha-methyl-2-fluoro-L-phenylalanine; SITE 10: note = 3-(4-Pyridyl)-L-alanine; SITE 11: note = alpha-methyl-L-serine; SITE 13: note = alpha-methyl-leucine; SITE 16: note = L-ornithine; SITE 17: note = Lysine is chemically mo) [Example 698] | nM | 0.252
HXQGTXTSDYXIXLDXKAQXAFIEYLLEGGPSSGEPPPE (synthetic construct; SITE 2: note = 2-Aminoisobutyric Acid; SITE 6: note = alpha-methyl-2-fluoro-L-phenylalanine; SITE 11: note = alpha-methyl-L-serine; SITE 13: note = alpha-methyl-leucine; SITE 16: note = L-ornithine; SITE 17: note = Lysine is chemically modified through conjugation of the epsilon) [Example 381] | nM | 0.157

Note: attention shifts to another entry.
Ask: # lookup: Relative cAMP EC50 of YXQGTXTSDXXILLDXKAQXXFIEYLIEGGPSSGEPPPEGGEE (Aib, αMeF(2F), 4Pal, αMeS, Orn; acylated lysine; amide; synthetic construct; SITE 2: note = 2-Aminoisobutyric Acid; SITE 6: note = alpha-methyl-2-fluoro-L-phenylalanine; SITE 10: note = 3-(4-Pyridyl)-L-alanine; SITE 11: note = alpha-methyl-L-serine; SITE 16: note = L-ornithine; SITE 17: note = Lysine is chemically modified through conjugation of the epsi) [Example 605]
Reply: 0.795
